- targetEntity: T1, Anti-PSMA Fab (SEQ ID NOs: 19, 20)
- T1 construct: In the phage ELISA the Fab was biotinylated and captured on neutravidin coated plates; also called 006 PSMA Fab
- assayName: phage ELISA; biotinylated PSMA Fab on neutravidin plate, clonal phage supernatant, anti-M13 HRP detection;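 also: wells preincubated with PSMA antigen in blocking buffer or with blocking buffer only before clonal phage were added for a short incubation, then bound phage detected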
Where no end group is shown, it is not given here.
Each record here notes measured Phage binding ELISA, Anti-PSMA Fab signal.
Answer using only a numeral; do not append any unit.

Sample answers from the record:
LPHWCTPLWMCEGF (cysteine pairing not given here; also: fused to phage pIII, pIII sequence and linker not given here, Peptide-180 library clone) [Phage-2006] :: 1.85
LEKLCIPSWMCEGM (cysteine pairing not given here; also: displayed as fusion to phage pIII, Peptide-180 library clone) [Phage-2002] :: 1.85
DTHMCRPLWMCTGL (cysteine pairing not given here; also: fused to phage pIII, pIII sequence and linker not given here, Peptide-180 library clone) [Phage-2011] :: 1.84
NFHLCTPQWMCTGF (cysteine pairing not given here; also: displayed as fusion to phage pIII, Peptide-180 library clone) [Phage-1997] :: 1.86
IDNWCRPLWMCHGF (cysteine pairing not given here; also: displayed as fusion to phage pIII, Peptide-180 library clone) [Phage-2004] :: 1.85

Phage binding ELISA, Anti-PSMA Fab signal for HPKWCTPAWMCVML (cysteine pairing not given here; also: fused to phage pIII, pIII sequence and linker not given here, Peptide-180 library clone) [Phage-2008] is 1.85

Phage binding ELISA, Anti-PSMA Fab signal for LQKLCIPEWMCLNM (cysteine pairing not given here; also: fused to phage pIII, pIII sequence and linker not given here, Peptide-180 library clone) [Phage-2010] is 1.84

Phage binding ELISA, Anti-PSMA Fab signal for FEKWCVPIWMCRDS (cysteine pairing not given here; also: displayed as fusion to phage pIII, Peptide-180 library clone) [Phage-2003] is 1.85

Phage binding ELISA, Anti-PSMA Fab signal for EFVKCVPAWMCEWT (cysteine pairing not given here; also: fused to phage pIII, pIII sequence and linker not given here, Peptide-180 library clone) [Phage-2009] is 1.84

Phage binding ELISA, Anti-PSMA Fab signal for EVKWCTPAWMCEGF (cysteine pairing not given here; also: displayed as fusion to phage pIII, Peptide-180 library clone) [Phage-2001] is 1.85

Phage binding ELISA, Anti-PSMA Fab signal for VTKWCIPEWMCEYI (cysteine pairing not given here; also: fused to phage pIII, pIII sequence and linker not given here, Peptide-180 library clone) [Phage-2005] is 1.85

Phage binding ELISA, Anti-PSMA Fab signal for IDKWCIPAWMCVSN (cysteine pairing not given here; also: displayed as fusion to phage pIII, Peptide-180 library clone) [Phage-1998] is 1.86
